Reference source: ChEMBL document CHEMBL1156780

Tested on: CCRF-CEM
Assay: Cytotoxicity against human CCRF-CEM cells after 3 days by XTT assay
Type: functional, cell-based
Details: 72 h
result type: pIC50
Scale explanation: pIC50 corresponds to minus log10 of a concentration expressed in moles per litre.

Q. # query: pIC50 of entry OCc1ncnc2c1ccn2[C@@H]1O[C@H](CO)[C@@H](O)[C@H]1O
A. 6.35

Q. For the compound OC[C@H]1O[C@@H](n2ccc3c(-c4cn[nH]c4)ncnc32)[C@H](O)[C@@H]1O , what pIC50 is on record?
A. 6.00

Q. Please give the measured pIC50 for this compound: OC[C@H]1O[C@@H](n2ccc3c(-c4ccccc4)ncnc32)[C@H](O)[C@@H]1O
A. 5.40

Q. Fill in the blank: the reported pIC50 of CCc1ncnc2c1ccn2[C@@H]1O[C@H](CO)[C@@H](O)[C@H]1O is ____.
A. 5.90

Q. Requested read-out: pIC50. Entry: OC[C@H]1O[C@@H](n2ccc3c(-c4ccco4)ncnc32)[C@H](O)[C@@H]1O
A. 6.51

Q. Need pIC50, item OC[C@H]1O[C@@H](n2ccc3c(-c4c[nH]cn4)ncnc32)[C@H](O)[C@@H]1O
A. 6.15
